Taken from patent US20200317776A1.

Biological target: human TREM2/DAP12 fusion protein (human, UniProt O43914 41-113, limits assumed)
Sequence (O43914 other isoform, or with tags, fused parts or gaps limits assumed): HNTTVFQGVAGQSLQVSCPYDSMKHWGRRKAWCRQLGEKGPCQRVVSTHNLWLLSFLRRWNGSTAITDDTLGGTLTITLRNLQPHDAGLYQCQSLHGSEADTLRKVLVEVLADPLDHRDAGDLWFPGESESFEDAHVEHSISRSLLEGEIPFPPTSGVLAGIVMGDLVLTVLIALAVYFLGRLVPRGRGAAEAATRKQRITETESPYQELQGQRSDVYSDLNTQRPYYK
Assay: cell-based or functional assay
Catalogue of binders with associated BW Luc assay plate bound 7.3 nM IgG, FOC
Write the value in FOC as a bare number.

AL2p-40 (antibody, IgG1, V domains shown, Fab and IgG formats under one id) VH: QVQLVQSGAEVKKPGSSVKVSCKASGYAFSSHWMNWVRQAPGQGLEWMGRIYPGGGDTNYAQKFRGRVTITADESTSTAYMELSSLRSEDTAVYYCARLLRNQPGASYAMDYWGQGTLVTVSS VL: GVVMTQTPLSLSVTPGQPASISCRTSRSLVHSNRYTYLHWYLQKPGQSPQLLIYKVSNRRSGVPDRFSGSGSGTDFTLKISRVEAEDVGVYYCSQSTRVPYTFGQGTKLEIK    8.49
AL2p-41 (antibody, IgG1, V domains shown, Fab and IgG formats under one id) VH: QVQLVQSGAEVKKPGSSVKVSCKASGYAFSSHWMNWVRQAPGQGLEWMGRIYPGEGDTNYAQKFRGRVTITADESTSTAYMELSSLRSEDTAVYYCARLLRNQPGASYAMDYWGQGTLVTVSS VL: GVVMTQTPLSLSVTPGQPASISCRSSRSLVHSNQYTYLHWYLQKPGQSPQLLIYKVSNRRSGVPDRFSGSGSGTDFTLKISRVEAEDVGVYYCSQSTRVPYTFGQGTKLEIK    7.61

Now examine the next entry.
The reported BW Luc assay plate bound 7.3 nM IgG, FOC of the binder AL2p-43 (antibody, V domains shown, Fab and IgG formats under one id) VH: QVQLVQSGAEVKKPGSSVKVSCKASGYAFSSHWMNWVRQAPGQGLEWMGRIYPGGGDTNYARKFRGRVTITADESTSTAYMELSSLRSEDTAVYYCARLLRNQPGASYAMDYWGQGTLVTVSS VL: GVVMTQTPLSLSVTPGQPASISCRSSRSLVHSNRYTYLHWYLQKPGQSPQLLIYKVSNRRSGVPDRFSGSGSGTDFTLKISRVEAEDVGVYYCSQSTRVPYTFGQGTKLEIK was 5.41
